# Tested on: PMA-differentiated THP-1 cells
# Experiment summary: IL-1β production in PMA-differentiated THP-1 cells stimulated with gramicidin (hTHP-1 assay containing 2% fetal bovine serum; Procedures 1 and 2)
# Format: cell-based, human
# Applied conditions: Homo sapiens, THP-1, Table B2; 2% fetal bovine serum; class symbols; read-out: hTHP-1 IC50
# Method: The following protocol is suitable for testing the activity of the compounds disclosed herein. Procedure 1: IL-1β Production in PMA-Differentiated THP-1 Cells Stimulated with Gramicidin. […] THP-1 cells were treated with PMA (Phorbol 12-myristate 13-acetate) (20 ng/ml) for 16-18 hours. […] The plates were incubated for 18 h at 4° C. and read using the preset HTRF program (donor emission at 620 nm, acceptor emission at 668 nm) of the SpectraMax i3x spectrophotometer (Molecular Devices, software SoftMax 6). […]
pIC50: −log10 of the molar value.
Parameter measured: pIC50

These recorded examples may help you get a feel for the data.
NS(=O)(=NC(=O)Nc1c2c(nc3c1CCC3)CCC2)c1ccn(CC(F)(F)F)n1 (single isomer, unassigned) [Compound 685b] ... 5.30 to 6.00
Cc1c(CC2CC2)nc2c(c1NC(=O)N=S(N)(=O)c1cc(C(C)(C)O)cs1)CCC2 (single isomer, unassigned) [Compound 665b] ... 5.30 to 6.00
Cc1c(C2CC2)nc2c(c1NC(=O)N=S(N)(=O)c1cnn3c1OCCC3)CCC2 (single isomer, unassigned) [Compound 306b] ... 4.52 to 5.30
NS(=O)(=NC(=O)Nc1c2c(nc3c1CCC31CC1)CCC2)c1nn(C(F)F)cc1F (stereo not shown) [Compound 719] ... 6.00 to 6.70

// for each molecule below, give its pIC50
1. CC(C)(O)c1sc(S(N)(=O)=NC(=O)Nc2c3c(nc4c2CCC4(C)C)CCC3)nc1CO (stereo not shown) [Compound 642]
2. CC(C)(O)c1cc(F)c([S@](N)(=O)=NC(=O)Nc2cc(CC(F)(F)F)nc3c2CCC3)s1 [Compound 602b]
3. Cc1c(C(C)C)nc2c(c1NC(=O)N=S(N)(=O)c1cc(C(C)(C)O)cs1)CCC2 (stereo not shown) [Compound 681]

1. 6.70 to 7.40
2. 5.30 to 6.00
3. 6.70 to 7.40

###

# System: PMA-differentiated THP-1 cells
# Experiment summary: IL-1β production in PMA-differentiated THP-1 cells stimulated with gramicidin (hTHP-1 assay containing 2% fetal bovine serum; Procedures 1 and 2)
# Format: cell-based, human
# Applied conditions: Homo sapiens, THP-1, Table B2; 2% fetal bovine serum; class symbols; read-out: hTHP-1 IC50
pIC50: −log10 of the molar value.
Give measured pIC50 for each item. Keep answers brief.

Cc1c(C2CC2)nc2c(c1NC(=O)N=S(N)(=O)c1cc(C(C)(C)O)n(-c3ccccc3)n1)CCC2 (stereo not shown) ... 4.52 to 5.30
Cc1c(C2CCC2)nc2c(c1NC(=O)N=S(N)(=O)c1cnc(C(C)(C)O)s1)CCC2 (single isomer, unassigned) [Compound 649a] ... 4.52 to 5.30
CC(C)(CO)c1ncc(S(N)(=O)=NC(=O)Nc2c3c(nc4c2CCC4(C)C)CCC3)s1 (stereo not shown) ... 6.00 to 6.70
NS(=O)(=NC(=O)Nc1c2c(nc(C3CC3)c1C1CC1)CCC2)c1ccn(C(F)F)n1 (stereo not shown) ... 5.30 to 6.00

I need pIC50 for every entry listed below, if you could help.
1. CC(C)(O)c1sc(S(N)(=O)=NC(=O)Nc2c3c(nc4c2CCC4(C)C)CCC3)cc1F (stereo not shown)
2. CCn1ccc(S(N)(=O)=NC(=O)Nc2c3c(nc(C4CC4)c2C2CC2)CCC3)n1 (stereo not shown)
3. CC(C)(O)c1cccc(S(N)(=O)=NC(=O)Nc2c3c(nc4c2CCC4)CCC3)c1 (single isomer, unassigned) [Compound 625b]
4. CC1(C)CCc2c1nc1c(c2NC(=O)N=S(N)(=O)c2cnc(C(O)(CO)CO)s2)CCC1 (stereo not shown)
5. CC(C)(O)c1cc(C#N)cc(S(N)(=O)=NC(=O)Nc2c3c(nc4c2CCC4(C)C)CCC3)c1 (stereo not shown) [Compound 674]
6. CCn1ccc(S(N)(=O)=NC(=O)Nc2c3c(nc4c2CCC42CC2)CCC3)n1 (stereo not shown)

1. 6.00 to 6.70
2. 5.30 to 6.00
3. 5.30 to 6.00
4. 6.00 to 6.70
5. 5.30 to 6.00
6. 6.00 to 6.70

###

# Test system: PMA-differentiated THP-1 cells
# Experiment summary: IL-1β production in PMA-differentiated THP-1 cells stimulated with gramicidin (hTHP-1 assay containing 2% fetal bovine serum; Procedures 1 and 2)
# Type: cell-based, human
# Applied conditions: Homo sapiens, THP-1, Table B2; 2% fetal bovine serum; class symbols; read-out: hTHP-1 IC50
Exercise: state measured IC50 for each of the molecules provided.

Reference set, count: 6
Cc1c(CC2CC2)nc2c(c1NC(=O)N=S(N)(=O)c1cc(C(C)(C)O)cs1)CCC2 (stereo not drawn) [Compound 655] ... 5000 to 30000 nM
Cc1c(C(F)F)nc2c(c1NC(=O)N=S(N)(=O)c1cnc(C(C)(C)O)s1)CCC2 (single isomer, unassigned) [Compound 647a] ... 1000 to 5000 nM
CC(C)(O)c1csc(S(N)(=O)=NC(=O)Nc2c3c(nc(C4CC4)c2C2CC2)CCC3)c1 (stereo not drawn) [Compound 670] ... 200 to 1000 nM
CC(C)(O)c1cc(F)c(S(N)(=O)=NC(=O)Nc2c3c(nc(C4CC4)c2C2CC2)CCC3)s1 (stereo not drawn) [Compound 727] ... 200 to 1000 nM
Cc1c(C(F)(F)F)nc2c(c1NC(=O)N=[S@](N)(=O)c1cnc(C(C)(C)O)s1)CC[C@H]2C [Compound 608b] ... 5000 to 30000 nM
C[C@@](O)(CO)c1cc(F)c(S(N)(=O)=NC(=O)Nc2c3c(nc4c2CCC42CC2)CCC3)s1 (stereo partly drawn) [Compound 716b] ... 200 to 1000 nM

State recorded IC50 for all listed molecules.
1. CC(C)c1cc(NC(=O)N=S(N)(=O)c2cc(C(C)(C)O)cs2)c2c(n1)CCC2 (single isomer, unassigned) [Compound 182b]
2. Cc1nc2c(c(NC(=O)N=S(N)(=O)c3cc(C(C)(C)O)cs3)c1C1CC1)CCC2 (stereo not drawn) [Compound 623]
3. N[S@](=O)(=NC(=O)Nc1c2c(nc(C3CC3)c1C1CC1)CCC2)c1ccn(C(F)F)n1 [Compound 728a]

5000 to 30000 nM
200 to 1000 nM
5000 to 30000 nM

###

# Tested on: PMA-differentiated THP-1 cells
# Experiment summary: IL-1β production in PMA-differentiated THP-1 cells stimulated with gramicidin (hTHP-1 assay containing 2% fetal bovine serum; Procedures 1 and 2)
# Type: cell-based, human
# Applied conditions: Table B3; hTHP-1 assay, 2% fetal bovine serum; class symbols; read-out: IC50
Kindly supply the reported IC50 values for the records listed here.

Cc1c(C(F)(F)F)nc2c(c1NC(=O)N=S(N)(=O)c1cnc(C(C)(C)O)s1)CCC2C (single isomer, unassigned) [Example 706] ... 200 to 1000 nM
CCn1cc(F)c(S(N)(=O)=NC(=O)Nc2c3c(nc4c2CC[C@H]4C)CCC3)n1 (single isomer, unassigned) [Example 669] ... 8 to 40 nM
CCn1cc(F)c(S(N)(=O)=NC(=O)Nc2c3c(nc4c2CC[C@@H]4C)CCC3)n1 (single isomer, unassigned) [Example 711] ... 40 to 200 nM

Record IC50 for all entries; do not skip any.
1. CCn1cc(F)c(S(N)(=O)=NC(=O)Nc2c3c(nc(C4CC4)c2C2CC2)CCC3)n1 (single isomer, unassigned) [Example 707]
2. CCn1cc(F)c(S(N)(=O)=NC(=O)Nc2c3c(nc4c2CCC42CC2)CCC3)n1 (single isomer, unassigned) [Example 671]
3. NS(=O)(=NC(=O)Nc1c2c(nc(C3CC3)c1C1CC1)CCC2)c1ccn(C(F)F)n1 (single isomer, unassigned) [Example 695]
4. CCn1ccc(S(N)(=O)=NC(=O)Nc2c3c(nc(C4CC4)c2C2CC2)CCC3)n1 (single isomer, unassigned) [Example 699]
5. CCn1cc(F)c(S(N)(=O)=NC(=O)Nc2c(C)c(C(F)(F)F)nc3c2CCC3)n1 (single isomer, unassigned) [Example 649]

8 to 40 nM
8 to 40 nM
1000 to 5000 nM
200 to 1000 nM
40 to 200 nM

###

# Test system: PMA-differentiated THP-1 cells
# Experiment summary: IL-1β production in PMA-differentiated THP-1 cells stimulated with gramicidin (hTHP-1 assay containing 2% fetal bovine serum; Procedures 1 and 2)
# Assay type: cell-based, human
# Applied conditions: Homo sapiens, THP-1, Table B2; 2% fetal bovine serum; class symbols; read-out: hTHP-1 IC50
I'd be grateful if you could share measured IC50 for these entries.

Okay, here is my list. What is IC50 for each of these?
1. Cc1c(C(F)(F)F)nc2c(c1NC(=O)N=S(N)(=O)c1sc(C(C)(C)O)cc1F)CCC2 (stereo not shown)
2. Cc1c(C2CCC2)nc2c(c1NC(=O)N=S(N)(=O)c1cc(C(C)(C)O)cs1)CCC2 (stereo not shown) [Compound 658]

["0.2 to 1 µM", "5 to 30 µM"]

Quick one: give me IC50 for each item below, same order please.
1. C[C@@H]1CCc2c1nc1c(c2NC(=O)N=S(N)(=O)c2ncc(C(C)(C)O)s2)CCC1 (stereo partly shown) [Compound 140c]
2. Cc1cc(C(C)(C)O)sc1S(N)(=O)=NC(=O)Nc1c2c(nc3c1CCC3)CCC2 (single isomer, unassigned) [Compound 695b]

1: 0.2 to 1 µM; 2: 5 to 30 µM

Source: patent US20230031406A1
